The reported measurements were obtained from patent US8759342B2.

- tgt: rat GPR14 (U-II receptor) (Rattus norvegicus, UniProt P49684)
- Sequence (P49684 whole entry): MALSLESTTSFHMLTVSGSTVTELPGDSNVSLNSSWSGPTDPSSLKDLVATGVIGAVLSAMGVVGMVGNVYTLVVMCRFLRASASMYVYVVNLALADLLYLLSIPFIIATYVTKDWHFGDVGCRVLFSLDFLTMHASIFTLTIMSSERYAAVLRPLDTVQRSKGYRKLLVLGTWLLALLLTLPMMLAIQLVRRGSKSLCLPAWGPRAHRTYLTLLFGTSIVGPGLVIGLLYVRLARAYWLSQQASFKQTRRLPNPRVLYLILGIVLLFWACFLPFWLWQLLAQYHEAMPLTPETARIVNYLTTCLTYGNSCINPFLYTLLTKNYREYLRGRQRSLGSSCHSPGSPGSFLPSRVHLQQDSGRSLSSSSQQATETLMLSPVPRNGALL
- assay-protocol: Calcium flux assay (FLIPR)
- test-parameters: Inhibition of acetyl-cyclic[Cys-Phe-Trp-Lys-(2-Nal)-Cys]-NH2 (1 nM) induced Ca2+ mobilization (FLIPR) in CHO cells transfected with rat UII receptor; 5 min incubation
pIC50: −log10 of the molar value.
Returns MET if the recorded pIC50 is greater than or equal to 6, and NOT MET otherwise.

molecule	class-label
COCCNC(=O)c1ccccc1C1CCN(CCN2C(=O)COc3ccccc32)CC1	NOT MET
CN(C)C(=O)c1cc(Cl)ccc1C1CCN(CCN2C(=O)COc3ccccc32)CC1	NOT MET
COC(=O)c1cc(Cl)ccc1C1CCN(CCN2C(=O)COc3ccccc32)CC1	NOT MET
CC(CNC(=O)c1ccccc1C1CCN(CCN2C(=O)COc3ccccc32)CC1)c1ccccc1 (stereo not shown)	NOT MET
O=C(NCC1CCN(S(=O)(=O)Cc2ccccc2)CC1)c1cc(Cl)ccc1C1CCN(CCN2C(=O)COc3ccccc32)CC1	MET

Record `O=C1COc2ccccc2N1CCN1CCC(c2cccc(Cl)c2)CC1` ; criterion: pIC50 no lower than 6. Met?
NOT MET

Could you tell me if the measured pIC50 of `O=C(NCCCCCNC(=O)c1cc(Cl)ccc1C1CCN(CCN2C(=O)COc3ccccc32)CC1)OCc1ccccc1` reaches 6 or more?
MET
